- Test summary: in vitro
- Test conditions: guinea pig, plasma
- Description: Stability in guinea pig plasma assessed as half-life at 5 uM incubated for 120 mins by LC-MS/MS analysis
For each of the compounds below, state its half-life at 2 h, 5 µM.

Prompt: Could you tell me which half-life at 2 h, 5 µM is on file for O=C(NCCCOc1cccc([C@](O)(C(=O)OCC2CCN(Cc3ccccc3)CC2)c2ccccc2)c1)c1ccc(CNC[C@H](O)c2ccc(O)c3[nH]c(=O)ccc23)cc1 ?
Completion: < 5 min

Prompt: Would you mind doing O=C(NCCCOc1cccc([C@@](O)(C(=O)OCC2CCN(Cc3ccccc3)CC2)c2ccccc2)c1)c1ccc(CNCC(O)c2ccc(O)c3[nH]c(=O)ccc23)cc1 (stereo partly drawn) as well?
Completion: > 150 min

Prompt: Would you mind doing O=C(NCCCOc1cccc([C@](O)(C(=O)O[C@@H]2CCCN(Cc3ccccc3)C2)c2ccccc2)c1)c1ccc(CNC[C@H](O)c2ccc(O)c3[nH]c(=O)ccc23)cc1.O=CO as well?
Completion: > 150 min

###

- Tested system: UniProtKB Q8K4Z4
- Sequence (Q8K4Z4 whole entry): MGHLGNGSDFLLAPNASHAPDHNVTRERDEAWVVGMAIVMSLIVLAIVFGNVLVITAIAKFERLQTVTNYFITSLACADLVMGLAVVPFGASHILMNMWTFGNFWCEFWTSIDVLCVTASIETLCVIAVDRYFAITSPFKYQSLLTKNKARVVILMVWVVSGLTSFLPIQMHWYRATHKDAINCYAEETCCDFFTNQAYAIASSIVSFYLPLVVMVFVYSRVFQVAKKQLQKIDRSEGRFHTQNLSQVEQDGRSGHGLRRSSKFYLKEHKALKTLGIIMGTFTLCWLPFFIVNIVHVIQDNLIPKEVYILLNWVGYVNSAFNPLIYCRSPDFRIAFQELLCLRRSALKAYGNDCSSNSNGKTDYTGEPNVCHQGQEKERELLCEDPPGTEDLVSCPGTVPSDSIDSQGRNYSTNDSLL
- Test summary: Agonist activity at beta2 adrenoceptor in male albino Dunkin-Hartley guinea pig trachea assessed as inhibition of histamine induced smooth muscle contraction
Readout: IC50
Show the value, then the unit it is measured in.

Prompt: Could you tell me which IC50 is on file for O=C(NCCCCNC[C@H](O)c1ccc(O)c2[nH]c(=O)ccc12)c1ccc(CNC2(C(=O)OCC3CCN(Cc4ccccc4)CC3)CCc3ccccc32)s1 (mixture of isomers; 33) ?
Completion: 0.0631 nM

Prompt: Would you mind doing COc1cc(C(=O)NCCCOc2cccc([C@](O)(C(=O)OCC3CCN(Cc4ccccc4)CC3)c3ccccc3)c2)c(F)cc1CNC[C@H](O)c1ccc(O)c2[nH]c(=O)ccc12 as well?
Completion: 0.1 nM

Prompt: Would you mind doing CN1CCC[C@@H](OC(=O)[C@](O)(c2ccccc2)c2cccc(OCCCNC(=O)c3ccc(CNC[C@H](O)c4ccc(O)c5[nH]c(=O)ccc45)cc3)c2)C1 as well?
Completion: 0.1 nM

###

- Test summary: in vitro
- Test conditions: guinea pig, plasma
Readout: half-life at 2 h, 5 µM

Prompt: Could you tell me which half-life at 2 h, 5 µM is on file for COc1cc(C(=O)NCCCOc2cccc([C@](O)(C(=O)O[C@@H]3CCCN(C)C3)c3ccccc3)c2)c(F)cc1CNC[C@H](O)c1ccc(O)c2[nH]c(=O)ccc12 ?
Completion: > 2.5 h

Prompt: Would you mind doing CCN1CCC(COC(=O)[C@](O)(c2ccccc2)c2cccc(OCCCNC(=O)c3cc(OC)c(CNC[C@H](O)c4ccc(O)c5[nH]c(=O)ccc45)cc3F)c2)CC1.O=C(O)C(F)(F)F.O=C(O)C(F)(F)F as well?
Completion: > 2.5 h

Prompt: Would you mind doing COc1cc(C(=O)NCCCOc2cccc([C@](O)(C(=O)OCC3CCN(CC4CC4)CC3)c3ccccc3)c2)c(F)cc1CNC[C@H](O)c1ccc(O)c2[nH]c(=O)ccc12.O=CO.O=CO as well?
Completion: > 2.5 h

###

- Test summary: in vitro
- Test conditions: rat, plasma
- Description: Stability in rat plasma assessed as half-life at 5 uM incubated for 120 mins by LC-MS/MS analysis
For each of the compounds below, state its log10 of half-life at 2 h, 5 µM.
// do not treat as linear: log10 of half-life at 2 h, 5 µM, unit min

Prompt: Could you tell me which log10 of half-life at 2 h, 5 µM is on file for O=C(NCCCOc1cccc([C@](O)(C(=O)OCC2CCN(C3CCCC3)CC2)c2ccccc2)c1)c1ccc(CNC[C@H](O)c2ccc(O)c3[nH]c(=O)ccc23)cc1 ?
Completion: 1.15

Prompt: Would you mind doing COc1cc(CNC[C@H](O)c2ccc(O)c3[nH]c(=O)ccc23)c(Cl)cc1C(=O)NCCCOc1cccc([C@](O)(C(=O)O[C@@H]2CCCN(C)C2)c2ccccc2)c1 as well?
Completion: 2.11

Prompt: Would you mind doing CN1CCC[C@@H](OC(=O)[C@](O)(c2ccccc2)c2cccc(OCCCNC(=O)c3ccc(CNC[C@H](O)c4ccc(O)c5[nH]c(=O)ccc45)cc3)c2)C1 as well?
Completion: 0.95

Prompt: Would you mind doing COc1cc(C(=O)NCCCOc2cccc([C@](O)(C(=O)OCC3CCN(Cc4ccccc4)CC3)c3ccccc3)c2)c(F)cc1CNC[C@H](O)c1ccc(O)c2[nH]c(=O)ccc12 as well?
Completion: 1.74

Prompt: Would you mind doing CN1CCC(COC(=O)[C@](O)(c2ccccc2)c2cccc(-c3ccc(CNC(=O)c4ccc(CNC[C@H](O)c5ccc(O)c6[nH]c(=O)ccc56)cc4)s3)c2)CC1 as well?
Completion: 1.94

Prompt: Would you mind doing O=C(NCCCOc1cccc([C@](O)(C(=O)OCC2CCN(Cc3ccccc3)CC2)c2ccccc2)c1)c1ccc(CNC[C@H](O)c2ccc(O)c3[nH]c(=O)ccc23)cc1 as well?
Completion: 1.43

Prompt: Would you mind doing CN1CCC[C@@H](OC(=O)[C@](O)(c2ccccc2)c2cccc(OCCCNC(=O)c3cnc(CNC[C@H](O)c4ccc(O)c5[nH]c(=O)ccc45)nc3)c2)C1.O=CO as well?
Completion: 1.11

Prompt: Would you mind doing O=C(NCCCOc1cccc([C@](O)(C(=O)OC2CCN(Cc3ccccc3)CC2)c2ccccc2)c1)c1ccc(CNC[C@H](O)c2ccc(O)c3[nH]c(=O)ccc23)cc1 as well?
Completion: 2.13

###

- Tested system: Beta-2 adrenergic receptor (Homo sapiens)
- Sequence (P07550 whole entry): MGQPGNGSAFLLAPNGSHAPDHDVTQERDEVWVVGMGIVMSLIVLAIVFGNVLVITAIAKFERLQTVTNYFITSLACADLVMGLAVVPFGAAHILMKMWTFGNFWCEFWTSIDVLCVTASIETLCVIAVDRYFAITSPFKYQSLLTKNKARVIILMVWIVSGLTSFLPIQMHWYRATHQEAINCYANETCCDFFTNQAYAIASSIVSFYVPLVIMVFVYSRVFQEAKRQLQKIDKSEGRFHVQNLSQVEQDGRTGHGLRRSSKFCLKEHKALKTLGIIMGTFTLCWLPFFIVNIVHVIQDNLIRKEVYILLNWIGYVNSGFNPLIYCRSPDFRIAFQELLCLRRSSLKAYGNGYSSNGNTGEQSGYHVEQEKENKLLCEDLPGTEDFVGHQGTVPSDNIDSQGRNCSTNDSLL
For each of the compounds below, state its log10(Ki).
// do not treat as linear: log10 of Ki, unit nM

Prompt: Could you tell me which log10(Ki) is on file for O=C(NCCCOc1cccc([C@](O)(C(=O)O[C@@H]2CCN(Cc3ccccc3)C2)c2ccccc2)c1)c1ccc(CNC[C@H](O)c2ccc(O)c3[nH]c(=O)ccc23)cc1 ?
Completion: -0.80

Prompt: Would you mind doing COc1cc(C(=O)NCCCOc2cccc([C@](O)(C(=O)O[C@@H]3CCCN(C)C3)c3ccccc3)c2)c(OC)cc1CNC[C@H](O)c1ccc(O)c2[nH]c(=O)ccc12 as well?
Completion: -1.20

Prompt: Would you mind doing O=C(NCCCOc1cccc([C@](O)(C(=O)O[C@@H]2CCCN(Cc3ccccc3)C2)c2ccccc2)c1)c1ccc(CNC[C@H](O)c2ccc(O)c3[nH]c(=O)ccc23)cc1.O=CO as well?
Completion: -0.50

Prompt: Would you mind doing O=C(NCCCOc1cccc([C@](O)(C(=O)OCC2CCN(C3CCC3)CC2)c2ccccc2)c1)c1ccc(CNC[C@H](O)c2ccc(O)c3[nH]c(=O)ccc23)cc1 as well?
Completion: -1.60

Prompt: Would you mind doing COc1cc(C(=O)N2CCC(c3cccc([C@](O)(C(=O)OCC4CCN(Cc5ccccc5)CC4)c4ccccc4)c3)CC2)ccc1CNC[C@H](O)c1ccc(O)c2[nH]c(=O)ccc12 as well?
Completion: -0.30

Prompt: Would you mind doing O=C(NCCCOc1cccc([C@](O)(C(=O)OCC2CCN(C3CCCC3)CC2)c2ccccc2)c1)c1ccc(CNC[C@H](O)c2ccc(O)c3[nH]c(=O)ccc23)cc1 as well?
Completion: -1.70
